Listing of entries alongside the reported abundance fitness.
B1: POU domain, class 3, transcription factor 2, residues 356 to 411; numbered along this chain, P20265 (parent)
chain: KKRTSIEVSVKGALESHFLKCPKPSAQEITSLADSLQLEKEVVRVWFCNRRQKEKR

- Variants of: B1
- experiment.description: abundance fitness (aPCA) (normalised: wild type 0, dead -1); higher = more abundant; growth selection in yeast, the domain comes from the species named
- experimental.parameters: Homo sapiens
measure: abundance fitness

>  <variant.designation>
K55V

>  <endpoint.result>
-0.116

$$$$
>  <variant.designation>
S5L

>  <endpoint.result>
0.002

$$$$
>  <variant.designation>
I6R

>  <endpoint.result>
-0.117

$$$$
>  <variant.designation>
V43G

>  <endpoint.result>
-0.906

$$$$
>  <variant.designation>
K23V

>  <endpoint.result>
-0.045

$$$$
>  <variant.designation>
L36V

>  <endpoint.result>
-0.53

$$$$
>  <variant.designation>
V45Q

>  <endpoint.result>
0.061

$$$$
>  <variant.designation>
C21I

>  <endpoint.result>
-0.484

$$$$
>  <variant.designation>
T4W

>  <endpoint.result>
-0.546

$$$$
>  <variant.designation>
S25A

>  <endpoint.result>
-0.322

$$$$
>  <variant.designation>
G12P

>  <endpoint.result>
-0.152

$$$$
>  <variant.designation>
K23G

>  <endpoint.result>
-0.426

$$$$
>  <variant.designation>
Q52E

>  <endpoint.result>
0.222

$$$$
>  <variant.designation>
K55S

>  <endpoint.result>
0.024

$$$$
>  <variant.designation>
V10W

>  <endpoint.result>
-0.19

$$$$
>  <variant.designation>
L38E

>  <endpoint.result>
-0.696

$$$$
>  <variant.designation>
E39G

>  <endpoint.result>
-0.324

$$$$
>  <variant.designation>
V43C

>  <endpoint.result>
-0.547

$$$$
>  <variant.designation>
A33R

>  <endpoint.result>
-0.936

$$$$
>  <variant.designation>
E15K

>  <endpoint.result>
-0.83

$$$$
>  <variant.designation>
V10M

>  <endpoint.result>
-0.134

$$$$
>  <variant.designation>
P22C

>  <endpoint.result>
-0.227

$$$$
>  <variant.designation>
V45W

>  <endpoint.result>
-0.038

$$$$
>  <variant.designation>
A13S

>  <endpoint.result>
-0.162

$$$$
>  <variant.designation>
K20C

>  <endpoint.result>
-0.392

$$$$
>  <variant.designation>
I29S

>  <endpoint.result>
-0.884

$$$$
>  <variant.designation>
S25T

>  <endpoint.result>
0.038

$$$$
>  <variant.designation>
N49K

>  <endpoint.result>
-0.056

$$$$
>  <variant.designation>
R44N

>  <endpoint.result>
-0.152

$$$$
>  <variant.designation>
R44E

>  <endpoint.result>
0.027

$$$$
>  <variant.designation>
K40G

>  <endpoint.result>
-0.085

$$$$
>  <variant.designation>
R3A

>  <endpoint.result>
-0.168

$$$$
>  <variant.designation>
T30W

>  <endpoint.result>
-0.324

$$$$
>  <variant.designation>
R56L

>  <endpoint.result>
0.131

$$$$
>  <variant.designation>
H17S

>  <endpoint.result>
0.089

$$$$
>  <variant.designation>
E15S

>  <endpoint.result>
-0.959

$$$$
>  <variant.designation>
A26Y

>  <endpoint.result>
-0.235

$$$$
>  <variant.designation>
L36E

>  <endpoint.result>
-0.892

$$$$
>  <variant.designation>
H17R

>  <endpoint.result>
-0.556

$$$$
>  <variant.designation>
Q52A

>  <endpoint.result>
0.039

$$$$
>  <variant.designation>
E7D

>  <endpoint.result>
0.066

$$$$
>  <variant.designation>
P22I

>  <endpoint.result>
-0.704

$$$$
>  <variant.designation>
T4E

>  <endpoint.result>
0.17

$$$$
>  <variant.designation>
I6P

>  <endpoint.result>
-0.213

$$$$
>  <variant.designation>
W46D

>  <endpoint.result>
-0.318

$$$$
>  <variant.designation>
V42N

>  <endpoint.result>
-0.309

$$$$

Hey, just so you know, these numbers are from the Human Domainome abundance scans (Beltran et al. 2025).
